assay: Microsomal stability in human liver microsomes assessed as intrinsic clearance at 0.1 uM incubated for 10 mins in presence of NADPH by LC-MS/MS analysis; type: ADME, Microsome
Property Label: intrinsic clearance (CLint) (mL/min/g)

Please review the entries below; each comes with its answer.
Requested field: intrinsic clearance (CLint). Item: O=C(NCCCCn1cccn1)c1cccc(C2SCC(=O)N2c2cc(F)ccn2)c1 (stereo not drawn)
116.4

// lookup intrinsic clearance (CLint) for Cc1ccnc(N2C(=O)CSC2c2cccc(C(=O)NCCCCn3cccn3)c2)c1 (racemic)
128.7

Request the reported intrinsic clearance (CLint) associated with O=C(NCCCCc1ccccc1)c1cccc(C2SCC(=O)N2c2cccc(-c3c[nH]nn3)c2)c1 (stereo not drawn)
261

Please look up its intrinsic clearance (CLint): COc1ccc(F)cc1N1C(=O)CSC1c1cccc(C(=O)NCCCCc2ccccc2)c1 (stereo not drawn)
1253

Would you mind telling me what intrinsic clearance (CLint) value was observed for O=C(NCCCCc1ccccc1)c1cccc(C2SCC(=O)N2c2ccccc2F)c1 (stereo not drawn) ?
1712

I: COc1ccc(F)cc1N1C(=O)CSC1c1cccc(C(=O)NCCCCn2cccn2)c1 (stereo not drawn)
II: C#Cc1cc(C(=O)NCCCCc2ccccc2)cc(C2SCC(=O)N2c2ccccc2OC)c1 (stereo not drawn)
III: O=C(NCCCCc1ccccc1)c1cccc(C2SCC(=O)N2c2ccc(C3CC3)cc2)c1 (stereo not drawn)
Rank entries according to their intrinsic clearance (CLint), from the largest number down. API: response body holds the labels in the requested order.
II, III, I

###

test system: HOS-TE85; test: Antiproliferative activity against human MNNG/HOS cells assessed as cell growth inhibition at 1 uM measured after 72 hrs by CCK-8 assay relative to control; assay type: functional
Property Label: inhibition at 1 µM (%)
Just the number in %, nothing appended.

For orientation, consider the following solved cases.
Please look up its inhibition at 1 µM: O=C(NCCCCc1ccccc1)c1cccc(C2SCC(=O)N2c2cccc(F)c2)c1 (stereo not given)
94

I am curious: what inhibition at 1 µM value has been reported for Cc1cccc(N2C(=O)CSC2c2cccc(C(=O)NCCCCc3ccccc3)c2)c1 (stereo not given) ?
96

Look up inhibition at 1 µM: COc1ccc(C)cc1N1C(=O)CSC1c1cccc(C(=O)NCCCCc2ccccc2)c1 (stereo not given)
95

Give the measured inhibition at 1 µM of CCOc1ccccc1N1C(=O)C(C)SC1c1cccc(C(=O)NCCCCc2ccccc2)c1 (stereo not given) .
94

# lookup: inhibition at 1 µM of COc1ccccc1N1C(=O)CSC1c1cc(F)cc(C(=O)O)c1 (stereo not given)
0

***
// query inhibition at 1 µM value for entry O=C(NCCCCc1ccccc1)c1cccc(C2SCC(=O)N2c2ccccc2)c1 (stereo not given)
96

Suppose we examine the compound COc1ccccc1N1C(=O)C(C)SC1c1cccc(C(=O)NCCCCc2ccccc2)c1 (stereo not given) ; what inhibition at 1 µM value has been reported?
95

# inhibition at 1 µM lookup, item O=C(NCCCCc1ccccc1)c1cccc(C2OCC(=O)N2c2cccc(F)c2)c1 (stereo not given)
87

Fill in the blank: the reported inhibition at 1 µM of COc1ccc(F)cc1N1C(=O)CSC1c1cccc(C(=O)NCCCCc2ccccc2)c1 (stereo not given) is ____.
95

GET /values?readout=inhibition at 1 µM&item= COc1ccccc1N1C(=O)CSC1C(=O)NCCCCc1ccccc1 (stereo not given)
0

###

experiment: Microsomal stability in mouse liver microsomes assessed as intrinsic clearance at 0.1 uM incubated for 10 mins in presence of NADPH by LC-MS/MS analysis; type: ADME, Microsome
Property Label: intrinsic clearance (CLint) (mL/min/g)

What does the data say about its intrinsic clearance (CLint)? Entry: Cc1cccc(N2C(=O)CSC2c2cccc(C(=O)NCCCCc3ccccc3)c2)c1 (stereo not given)
2936

Field request: intrinsic clearance (CLint) | item: COc1ccc(F)cc1N1C(=O)CSC1c1cccc(C(=O)NCCCCc2ccccc2)c1 (stereo not given)
2247

Name the recorded intrinsic clearance (CLint) for COc1ccccc1N1C(=O)CSC1c1cc(F)cc(C(=O)NCCCCc2ccccc2)c1 (stereo not given) .
1434

A: O=C(NCCCCc1ccccc1)c1cccc(C2SCC(=O)N2c2ccccn2)c1 (stereo not given)
B: O=C(NCCCCc1ccccc1)c1cccc(C2SCC(=O)N2c2cccc(C3CC3)c2)c1 (stereo not given)
Which numeric intrinsic clearance (CLint) is bigger, that of A or that of B ? Give the label of your selection.
B

###

assay: Microsomal stability in human liver microsomes assessed as intrinsic clearance at 0.1 uM incubated for 10 mins in presence of NADPH by LC-MS/MS analysis; assay type: ADME, Microsome
Property Label: intrinsic clearance (CLint) (mL/min/g)

Study these solved cases before continuing.
intrinsic clearance (CLint) for COc1ccccc1N1C(=O)C(C)SC1c1cccc(C(=O)NCCCCc2ccccc2)c1 (stereo not given) ?
2657

Which measured intrinsic clearance (CLint) value corresponds to O=C(NCCCCc1ccccc1)c1cccc(C2SCC(=O)N2c2cccc(C3CC3)c2)c1 (stereo not given) ?
2069

What value of intrinsic clearance (CLint) has been reported for the following compound? CC1SC(c2cccc(C(=O)NCCCCc3ccccc3)c2)N(c2ccc(C3CC3)cc2)C1=O (stereo not given)
2013

Can you share its intrinsic clearance (CLint)? I mean this compound: O=C(NCCCCc1ccccc1)c1cccc(C2SCC(=O)N2c2cccc(F)c2)c1 (stereo not given)
1844

A: CC(F)(F)c1cccc(N2C(=O)CSC2c2cccc(C(=O)NCCCCc3ccccc3)c2)c1 (stereo not given)
B: O=C(NCCCCn1cccn1)c1cccc(C2SCC(=O)N2c2ccccn2)c1 (stereo not given)
C: C#Cc1cccc(N2C(=O)CSC2c2cccc(C(=O)NCCCCc3ccccc3)c2)c1 (stereo not given)
D: Cc1cccc(N2C(=O)CSC2c2cccc(C(=O)NCCCCc3ccccc3)c2)c1 (stereo not given)
E: O=C(NCCCCc1ccccc1)c1cccc(C2SCC(=O)N2c2ccccn2)c1 (stereo not given)
Put the items in sequence by intrinsic clearance (CLint), from largest down. Answer by listing the labels in the order asked for.
D, A, C, E, B
(D: 2553 mL/min/g, A: 1750 mL/min/g, C: 751 mL/min/g, E: 412 mL/min/g, B: 82.1 mL/min/g)
